These measurements were taken from patent US20260132140A1.

System: pChk1(Ser296) in SW620 cells
protocol.notes: pChk1(Ser296) sandwich ELISA, cell-based on-target kinase activity
condition.details: Homo sapiens, SW-620, neocarzinostatin 7.5 μM, 2 hours, read-out: SW620 pIC50 (converted)
measurement.name: IC50

Use these answered entries as a reference point.
[
  {
    "smiles.record": "CN(C)[C@]1(C)CCN(c2ccc(-n3cnc(Nc4cnc(C#N)cn4)c3)cc2)C1",
    "study.system": "pChk1(Ser296) in SW620 cells",
    "data.value": "< 1 µM"
  },
  {
    "smiles.record": "N#Cc1cnc(Nc2cn(-c3ccccc3OCCCN)cn2)cn1",
    "study.system": "pChk1(Ser296) in SW620 cells",
    "data.value": "1 to 10 µM"
  },
  {
    "smiles.record": "[2H]C([2H])([2H])N([C@@H]1CCN(c2ccc(-n3cnc(Nc4cnc(C#N)cn4)c3)cc2)C1)C([2H])([2H])[2H]",
    "study.system": "pChk1(Ser296) in SW620 cells",
    "data.value": "1 to 10 µM"
  },
  {
    "smiles.record": "CN(C)[C@@H]1CCN(c2ccc(-n3cnc(Nc4cnc(C#N)cn4)c3)c(F)c2)C1",
    "study.system": "pChk1(Ser296) in SW620 cells",
    "data.value": "1 to 10 µM"
  },
  {
    "smiles.record": "CN(C)[C@@H]1CCN(c2ccc(-n3cnc(Nc4cnc(C#N)cn4)c3)nc2)C1",
    "study.system": "pChk1(Ser296) in SW620 cells",
    "data.value": "< 1 µM"
  },
  {
    "smiles.record": "C[C@@H]1C[C@@H](N2CCC2)CN1c1ccc(-n2cnc(Nc3cnc(C#N)cn3)c2)cc1",
    "study.system": "pChk1(Ser296) in SW620 cells",
    "data.value": "< 1 µM"
  },
  {
    "smiles.record": "C[C@H]1CN(c2ccc(-n3cnc(Nc4cnc(C#N)cn4)c3)cc2)C[C@@H]1N(C)C",
    "study.system": "pChk1(Ser296) in SW620 cells",
    "data.value": "< 1 µM"
  },
  {
    "smiles.record": "COc1cc(N2CC[C@@H](N(C)C)C2)ccc1-n1cnc(Nc2cnc(C#N)cn2)c1",
    "study.system": "pChk1(Ser296) in SW620 cells",
    "data.value": "< 1 µM"
  }
]

Q. What measured IC50 goes with "C[C@@H]1C[C@@H](N(C)C)CN1c1ccc(-n2cnc(Nc3cnc(C#N)cn3)c2)cc1" ?
A. < 1 µM

Q. Value lookup for IC50; key = "CN(C)[C@@H]1CCN(c2ccc(-n3cnc(Nc4cnc(C#N)cn4)c3)cc2)C1"
A. < 1 µM

----------
Target chain: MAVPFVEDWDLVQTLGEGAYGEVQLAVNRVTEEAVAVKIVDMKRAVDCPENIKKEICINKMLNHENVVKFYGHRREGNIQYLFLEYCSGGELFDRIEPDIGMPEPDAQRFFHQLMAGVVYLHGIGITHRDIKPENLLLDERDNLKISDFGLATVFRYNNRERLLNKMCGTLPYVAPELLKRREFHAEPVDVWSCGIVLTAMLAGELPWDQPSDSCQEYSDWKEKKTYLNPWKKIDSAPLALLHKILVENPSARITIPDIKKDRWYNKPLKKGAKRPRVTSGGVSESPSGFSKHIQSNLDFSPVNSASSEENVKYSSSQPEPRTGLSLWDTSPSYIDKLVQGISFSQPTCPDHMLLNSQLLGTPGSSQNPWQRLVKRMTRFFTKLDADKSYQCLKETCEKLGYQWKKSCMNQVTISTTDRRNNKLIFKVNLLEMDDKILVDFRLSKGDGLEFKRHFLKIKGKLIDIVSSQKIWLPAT
pIC50: −log10 of the molar value.
Each entry below carries its reported pIC50.

Study these solved cases before continuing.
[
  {
    "compound": "CN1CC2(CCN(c3ccc(-n4cnc(Nc5cnc(C#N)cn5)c4)cc3)C2)C1",
    "data.value": "7.50 to 8.00"
  },
  {
    "compound": "CN1CC2(CC(Oc3ccc(-n4cnc(Nc5cnc(C#N)cn5)c4)cc3)C2)C1",
    "data.value": "7.00 to 7.50"
  },
  {
    "compound": "CN(C)[C@@H]1CCN(c2cnc(-n3cnc(Nc4cnc(C#N)cn4)c3)cn2)C1",
    "data.value": "7.00 to 7.50"
  }
]

Q. # get_value(readout='pIC50', item= "CN1CCN(c2ccc(-n3cnc(Nc4cnc(C#N)cn4)c3)cc2)CC1" )
A. 7.50 to 8.00

Q. Reported pIC50 for "COc1cc(N2CC[C@@H](N3CCC3)C2)ccc1-n1cnc(Nc2cnc(C#N)cn2)c1" : what is it?
A. > 8.00

Q. Give the measured pIC50 of "C[C@H]1CN(C)CCN1c1ccc(-n2cnc(Nc3cnc(C#N)cn3)c2)cc1" .
A. 7.00 to 7.50

Q. Reported pIC50, compound "CN1CCC12CN(c1ccc(-n3cnc(Nc4cnc(C#N)cn4)c3)cc1)C2" : ____
A. 7.50 to 8.00

Q. Entry CN1CCC2(CCN2c2ccc(-n3cnc(Nc4cnc(C#N)cn4)c3)cc2)C1 (single isomer, unassigned) : reported pIC50 = ?
A. 7.50 to 8.00

Q. Entry under review: CC1(C)CN(C2CCN(c3ccc(-n4cnc(Nc5cnc(C#N)cn5)c4)cc3)C2)C1 (single isomer, unassigned) . Reported pIC50?
A. 7.50 to 8.00

Q. What measured pIC50 goes with "N#Cc1cnc(Nc2cn(-c3ccc(N4CC[C@@H](N5CCC5)C4)cn3)cn2)cn1" ?
A. 7.50 to 8.00

----------
study.system: human Chk2 kinase (Homo sapiens, UniProt O96017)
Sequence (O96017 whole entry): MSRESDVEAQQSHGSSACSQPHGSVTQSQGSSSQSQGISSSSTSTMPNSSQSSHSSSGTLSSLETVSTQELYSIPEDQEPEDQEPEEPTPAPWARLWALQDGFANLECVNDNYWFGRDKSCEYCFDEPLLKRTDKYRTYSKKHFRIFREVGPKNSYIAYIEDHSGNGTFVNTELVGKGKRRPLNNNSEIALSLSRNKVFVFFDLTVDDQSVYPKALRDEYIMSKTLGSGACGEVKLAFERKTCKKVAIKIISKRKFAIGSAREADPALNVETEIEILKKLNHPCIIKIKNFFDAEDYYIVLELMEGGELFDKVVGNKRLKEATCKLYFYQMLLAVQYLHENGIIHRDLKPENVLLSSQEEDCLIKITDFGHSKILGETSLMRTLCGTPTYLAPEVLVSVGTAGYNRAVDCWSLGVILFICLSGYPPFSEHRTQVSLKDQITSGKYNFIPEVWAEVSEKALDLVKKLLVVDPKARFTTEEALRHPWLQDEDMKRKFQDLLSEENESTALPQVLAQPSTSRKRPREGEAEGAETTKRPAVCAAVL
protocol.notes: biochemical
Quick list: IC50 per entry.

Below are worked cases with known answers.
[
  {
    "molecule": "N#Cc1cnc(Nc2cn(-c3ccc(N4C[C@@H](F)[C@@H](N)C4)cc3)cn2)cn1",
    "IC50": "10 to 100 µM"
  },
  {
    "molecule": "CN1CCOC(c2ccc(-n3cnc(Nc4cnc(C#N)cn4)c3)cc2)C1 (single isomer, unassigned)",
    "IC50": "10 to 100 µM"
  }
]

Q. Fill in: IC50 of C[C@@H]1CCN1C1CCN(c2ccc(-n3cnc(Nc4cnc(C#N)cn4)c3)cc2)C1 (single isomer, unassigned) [Example 135] is ___
A. 10 to 100 µM

Q. I am curious: what IC50 value has been reported for N#Cc1cnc(Nc2cn(-c3ccc(N4CCN5CCCC5C4)cc3)cn2)cn1 (single isomer, unassigned) ?
A. > 100 µM

Q. IC50 lookup needed for "CN1CCCN(c2ccc(-n3cnc(Nc4cnc(C#N)cn4)c3)cn2)CC1" , thanks.
A. 10 to 100 µM

Q. # get_value(readout='IC50', item= C[C@@H]1CCN1C1CCN(c2ccc(-n3cnc(Nc4cnc(C#N)cn4)c3)cc2)C1 (single isomer, unassigned) [Example 136] )
A. > 100 µM

Q. State the recorded IC50 for this entry: "CN1CCC2(CC1)CCN(c1cccc(-n3cnc(Nc4cnc(C#N)cn4)c3)c1)C2"
A. 10 to 100 µM

Q. Tell me the measured IC50 of "CN1C[C@@H]2CN(c3ccc(-n4cnc(Nc5cnc(C#N)cn5)c4)cc3)[C@@H]2C1" , please.
A. 10 to 100 µM

Q. Recorded IC50 for "Cc1cc(CN2CC[C@@H](F)C2)cc(C(F)(F)F)c1-n1cnc(Nc2cnc(C#N)cn2)c1" , please?
A. > 100 µM

----------
study.system: UniProt:O96017
protocol.notes: biochemical
Collected IC50 values appear next to each entry.

[
  {
    "compound": "Cc1cc(CN2CC[C@@H](F)C2)cc(C)c1-n1cnc(Nc2cnc(C#N)cn2)c1",
    "IC50": "> 100 µM"
  },
  {
    "compound": "COc1cc(N(C)CC2CCN(C)CC2)ccc1-n1cnc(Nc2cnc(C#N)cn2)c1",
    "IC50": "10 to 100 µM"
  },
  {
    "compound": "CN(C)[C@@H]1CCN(c2ccc(-n3cnc(Nc4cnc(C#N)cn4)c3)cc2F)C1",
    "IC50": "1 to 10 µM"
  },
  {
    "compound": "CN1C[C@@H]2CN(c3ccc(-n4cnc(Nc5cnc(C#N)cn5)c4)cc3)C[C@@H]21",
    "IC50": "1 to 10 µM"
  }
]

Q. Reported IC50, compound "CN1CCN(c2ccc(-n3cnc(Nc4cnc(C#N)cn4)c3)nc2)CC1" : ____
A. 1 to 10 µM

Q. May I ask what IC50 has been recorded for "CN(C)[C@@H]1CCN(c2cnc(-n3cnc(Nc4cnc(C#N)cn4)c3)nc2)C1" ?
A. 1 to 10 µM
